The values you see were collected from PubChem BioAssay AID1259417.

assay: M. tuberculosis growth inhibition, HTS (AID 1259417);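 also: bacteria grown with compound for 5 days at 37 °C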; conditions: M. tuberculosis growth inhibition; stronger effect = higher value; concentration not given here
In all, about 1,100 compounds went through this assay and about 760 (69%) were called active. The set was probably picked from earlier hits. The list shows a part of the results.
Catalogue of inhibition values
Entry rule: numbers only, all in %.

Some molecules with known inhibition results, for comparison:
O=C(Nc1ccc2c(c1)OCCO2)c1cccc2nc3ccccc3nc12    96.7
CCOc1cc(CNCc2ccccc2OCc2ccccc2)cc(Cl)c1OCC    -13.6
CCc1cc(I)ccc1NC(=O)c1ccc([N+](=O)[O-])o1    98.3

Requested read-out: inhibition. Entry: `O=c1cc(-c2c(F)c(F)c(F)c(F)c2F)oc2ccccc12`
96.4

Next record, please: `CCOC(=O)c1cc(-c2csc(COc3ccccc3Cl)n2)on1`
98.8

Next record, please: `CCOC(=O)c1cc(-c2csc(-c3ccc(C(F)(F)F)cc3)n2)on1`
83.4

Next record, please: `CN(C)C(=S)Nc1nc2ccccc2s1`
99.8

Next record, please: CC12CCC(C(=O)Nc3ccc(OC(F)(F)F)cc3)(CC1=O)C2(C)C (stereo unspecified)
81.6

Next record, please: `CCN(CC)c1ccc(NC(=O)c2ccc([N+](=O)[O-])o2)c(C)c1`
99.7

Next record, please: `CCOC(=O)c1cc(-c2csc(COc3ccc(Cl)cc3)n2)on1`
99.5

Next record, please: `Cc1ccc(C(=O)Nc2ccc([N+](=O)[O-])cc2C)cc1I`
83.2
